# protocol.notes: Ocular pharmacokinetics and biodistribution in adult mice (HPLC tissue levels)
# assay.conditions: mouse, cornea, topical
Known concentration at 1 h of a selection of compounds
measured.endpoint: concentration at 1 h (µM)

• CC1=C(CC(=O)O)c2cc(F)ccc2/C1=C\c1ccc([S+](C)[O-])cc1 (centres unmarked) [sulindac, reference compound] = 48.3
• CSc1ccc(/C=C2/C(C)=C(CC(=O)O)c3cc(F)ccc32)cc1 [sulindac sulfide] = 3.1

====

# protocol.notes: Ocular pharmacokinetics and biodistribution in adult mice (HPLC tissue levels)
# assay.conditions: mouse, retina, other: intravitreal injection
measured.endpoint: Cmax (µM)

* CC1=C(CC(=O)O)c2cc(F)ccc2/C1=C\c1ccc([S+](C)[O-])cc1 (stereo not shown) [sulindac, reference compound] | 7.1
